System: Ba/F3^myr-Akt1 cells
PROCEDURE_DETAILS: CellTiter-Glo cell viability assay
ASSAY_CONTEXT: Mus musculus, read-out: CTG BaF3myr-Akt1, Mean, mean of replicates
QUANTITY_KIND: EC50 (µM)
Record the value in µM, omitting the unit from your answer.

The following compounds have reported results that may help.
Input: I'd like to know its EC50. The compound in question is C=CC(=O)Nc1ccc2[nH]c(=O)n(C3CCN(Cc4ccc(-c5ncc(C(=O)NC)cc5-c5ccccc5)cc4)CC3)c2c1 [compound 6]
Output: 9.61

Input: And for C=CC(=O)Nc1ccc2[nH]c(=O)n(C3CCN(Cc4ccc(-c5ncc(C(=O)OC)cc5-c5ccccc5)cc4)CC3)c2c1 [compound 5] ?
Output: 4.92

Input: Field entry: C=CC(=O)Nc1ccc2[nH]c(=O)n(C3CCN(Cc4ccc(-c5ncc(C(=O)Nc6ccccn6)cc5-c5ccccc5)cc4)CC3)c2c1 [compound 23]
Output: 14.6

Further cases:
Input: Which EC50 reading was recorded for the compound C=CC(=O)Nc1ccc2[nH]c(=O)n(C3CCN(Cc4ccc(-c5ncc(C(=O)Nc6cnn(C)c6)cc5-c5ccccc5)cc4)CC3)c2c1 [compound 13] ?
Output: 19.3

Input: Try this compound next: C=CC(=O)Nc1ccc2[nH]c(=O)n(C3CCN(Cc4ccc(-c5ncc(Cc6cnn(C)c6)cc5-c5ccccc5)cc4)CC3)c2c1 [compound 12]
Output: 8.29

Input: Now consider C=CC(=O)Nc1ccc2[nH]c(=O)n(C3CCN(Cc4ccc(-c5ncc(Cc6cccnc6)cc5-c5ccccc5)cc4)CC3)c2c1 [compound 21] .
Output: 19.7
